Values were extracted from PubChem BioAssay (NCI).

Items are presented alongside their recorded growth.
System: PC-3 prostate
assay-explanation: NCI-60 one-dose screen, 48 h (100 = growth as untreated, 0 = no growth, -100 = all killed)
cond: 10 µM unless noted
This is part of a sample that, as a whole, favours compounds with a hit. Of some 83,000 tested, about 20% had one in any assay.
Answer in %, number only, no unit symbol.

# annotated cases, reported growth shown
COc1ccc(/C=C/C(=O)c2ccc(O)c(CN3CCN(c4cc5c(cc4F)c(=O)c(C(=O)O)cn5C4CC4)CC3)c2)cc1    18.1
C=C1C(=O)O[C@H]2[C@H]1CC/C(COC(=O)NCCc1ccc(OC)c(OC)c1)=C\CC[C@@]1(C)O[C@@H]21    78.8
COc1ccc(N=Nc2nccs2)c(O)c1    42.1
COc1ccccc1Nc1nc(-c2cc3cccc(C(F)(F)F)c3oc2=O)cs1    21.2
CCOC(=O)C(C)(C#N)C1C=CCCC1 (centres undefined)    94.2
COc1ccc(CN2c3ccccc3Sc3ccccc32)cc1O    26.1
CC1(C)CC[C@]2(C(=O)Nc3ccccn3)CC[C@]3(C)C(=CC[C@@H]4[C@@]5(C)C/C(=C/c6cccnc6)C(=O)C(C)(C)[C@@H]5CC[C@]43C)[C@H]2C1    19.9
O=C(COc1ccc(-c2nc3cc(Cl)c(Cl)cc3[nH]2)cc1)N=Nc1c(O)[nH]c2ccccc12    -50.6

Pending molecule:
Tell me growth reported for COc1ccc(-c2cc(-c3ccc(Nc4ccnc5cc(Cl)ccc45)cc3)nc(N3CCOCC3)n2)cc1
46.9
